- assayed-system: SjGST (Schistosoma japonicum, UniProt P08515)
- Construct: purchased GenScript (Piscataway, NJ)
- Sequence (P08515 whole entry): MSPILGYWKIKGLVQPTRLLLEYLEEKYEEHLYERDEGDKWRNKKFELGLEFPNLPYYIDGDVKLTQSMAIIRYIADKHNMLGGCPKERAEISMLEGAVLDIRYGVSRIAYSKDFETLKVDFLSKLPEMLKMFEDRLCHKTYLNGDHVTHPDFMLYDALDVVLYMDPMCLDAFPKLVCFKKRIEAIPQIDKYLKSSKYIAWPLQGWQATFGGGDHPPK
- assay-protocol: biochemical
- Type: binding
- condition-details: absence of GSH; top compound concentration, 200 µM; 1 µM SjGST
- Description: Compounds were diluted (1∶2, 7-points) in DMSO row-wise down to 10 µM in a 96-well polypropylene round bottom mother plate, with DMSO alone in the first column of each plate. […] The mid temperature of the protein thermal melt profiles, Tm, was determined using EXCEL-based custom calculation software available at (ftp://ftp.sgc.ox.ac.uk/pub/biophysics), and fitting of the data to the Boltzmann equation was performed using GraphPad Prism 4. […]
measured-parameter: Thermal shift (ΔTm versus vehicle control) of SjGST (°C)

compound	qualifier-operator	numeric-readout
C=C(CC)C(=O)c1ccc(OCC(=O)O)c(Cl)c1Cl	=	1.8
NC(CCC(=O)NC(CSc1ccc([N+](=O)[O-])c2nonc12)C(=O)NCC(=O)O)C(=O)O (stereo not shown)	=	5.9
CSC[C@H](NC(=O)CC[C@H](N)C(=O)O)C(=O)NCC(=O)O	<	2
NC(CCC(=O)NC(CSc1ccc(C(=O)OCCOCCOCCOCCOC(=O)c2ccc(SCC(NC(=O)CCC(N)C(=O)O)C(=O)NCC(=O)O)c([N+](=O)[O-])c2)cc1[N+](=O)[O-])C(=O)NCC(=O)O)C(=O)O (stereo not shown)	=	11.1

----------
- assayed-system: SjGST (Schistosoma japonicum, UniProt P08515)
- Construct: purchased GenScript (Piscataway, NJ)
- assay-protocol: SjGST luciferase-coupled luminescence enzymatic assay (PBI 1155 substrate, 100 µM GSH)
- Format: biochemical
- condition-details: 5 nM SjGST, 100 µM GSH, 20 µM PBI 1155; read-out: IC50 against SjGST
pIC50: −log10 of the molar value.
Binary classification by pIC50, with 6 as an inclusive lower bound for Criterion met; all other cases are Criterion not met.

molecule	assayed-system	classification
C=C(CC)C(=O)c1ccc(OCC(=O)O)c(Cl)c1Cl	SjGST (Schistosoma japonicum, UniProt P08515)	Criterion met
NC(CCC(=O)NC(CSc1ccc([N+](=O)[O-])c2nonc12)C(=O)NCC(=O)O)C(=O)O (centres unmarked)	SjGST (Schistosoma japonicum, UniProt P08515)	Criterion not met
O=c1c(O)c(-c2ccc(O)c(O)c2)oc2cc(O)cc(O)c12	SjGST (Schistosoma japonicum, UniProt P08515)	Criterion not met

----------
- assayed-system: SjGST (Schistosoma japonicum)
- Construct: purchased GenScript (Piscataway, NJ)
- assay-protocol: biochemical
- Type: binding
- condition-details: 200 µM compound; 2 mM GSH versus no GSH; read-out: Difference in thermal shift between GSH-present (2 mM) and GSH-absent curves at top compound concentration
ΔTm at 200 µM reference

molecule	ΔTm at 200 µM (°C)
NC(CCC(=O)NC(CSc1ccc(C(=O)OCCOCCOCCOCCOC(=O)c2ccc(SCC(NC(=O)CCC(N)C(=O)O)C(=O)NCC(=O)O)c([N+](=O)[O-])c2)cc1[N+](=O)[O-])C(=O)NCC(=O)O)C(=O)O (stereo not shown)	1.2
O=[N+]([O-])c1ccc(SCCCCCCCCO)c2nonc12	10.5
NC(CCC(=O)NC(CSc1ccc([N+](=O)[O-])c2nonc12)C(=O)NCC(=O)O)C(=O)O (stereo not shown)	4
C=C(CC)C(=O)c1ccc(OCC(=O)O)c(Cl)c1Cl	11.5

----------
- assayed-system: SjGST (Schistosoma japonicum)
- Construct: purchased GenScript (Piscataway, NJ)
- assay-protocol: biochemical
- Assay type: binding
- condition-details: absence of GSH; top compound concentration, 200 µM; 1 µM SjGST
measured-parameter: Thermal shift (ΔTm versus vehicle control) of SjGST

> print(dat)
                               smiles.input     result
1  O=c1c(O)c(-c2cc(O)c(O)c(O)c2)oc2cc(O)cc(O)c12  over 3 °C
2  O=c1c(O)c(-c2ccc(O)c(O)c2)oc2cc(O)cc(O)c12  over 3 °C
